measurement.notes: Absorption and fluorescence spectroscopy of dyes
Type: physicochemical
experimental.context: Table 3; 10 mM HEPES pH 7.3
With a cut-off of 500 nm, any λem strictly below it is called true (1); any λem meeting it or above is called false (0).

| compound | class |
| --- | --- |
| CN(C)c1ccc2c(c1)Oc1cc(O)ccc1C21OC(=O)c2ccccc21 (stereo not drawn) [dimethyl rhodol, reference compound] | false (0) |
| Cc1cc(=O)oc2cc(N(C)C)ccc12 [Coumarin 461, reference compound] | true (1) |
| CN(C)c1ccc2cc3ccc(N(C)C)cc3nc2c1 [Acridine Orange, reference compound] | false (0) |
| C[Si]1(C)C2=CC(=[N+]3CCC3)C=CC2=C(c2ccccc2C(=O)[O-])c2ccc(N3CCC3)cc21 | false (0) |
| c1cc2cc3ccc(N4CCC4)cc3nc2cc1N1CCC1 | false (0) |
| O=C(O)c1ccccc1-c1c2ccc(=O)cc-2oc2cc(N3CCC3)ccc12 | false (0) |

###

Readings of λem for the listed molecules
measurement.notes: Absorption and fluorescence spectroscopy of dyes
Assay type: physicochemical
experimental.context: Table 2; 10 mM HEPES pH 7.3
recorded.endpoint: λem

| molecule | recorded.endpoint | measured.value |
| --- | --- | --- |
| O=C([O-])c1ccccc1-c1c2ccc(=[N+]3CCC3)cc-2oc2cc(N3CCC3)ccc12 [Example 7] | λem | 571 nm |
| O=C1OC2(c3ccc(N4CCCCC4)cc3Oc3cc(N4CCCCC4)ccc32)c2ccccc21 [piperidine derivative, reference compound] | λem | 586 nm |
| Cl.N=c1ccc2c(-c3ccccc3C(=O)O)c3ccc(N)cc3oc-2c1 [rhodamine 110, reference compound] | λem | 520 nm |

###

measurement.notes: Absorption and fluorescence spectroscopy of dyes
Assay type: physicochemical
experimental.context: Table 1; 10 mM HEPES pH 7.3

| compound | λmax (nm) |
| --- | --- |
| C[Si]1(C)C2=CC(=[N+]3CCC3)C=CC2=C(c2ccccc2C(=O)[O-])c2ccc(N3CCC3)cc21 [Example 30] | 646 |
| COC1CN(c2ccc3c(-c4ccccc4C(=O)[O-])c4ccc(=[N+]5CC(OC)C5)cc-4oc3c2)C1 (stereo not shown) [Example 11] | 541 |
| CN(C)C1CN(c2ccc3c(-c4ccccc4C(=O)[O-])c4ccc(N5CC(N(C)C)C5)cc4[o+]c3c2)C1 [Example 13] | 542 |
| CC1(C)C2=CC(=[N+]3CCC3)C=CC2=C(c2ccccc2C(=O)[O-])c2ccc(N3CCC3)cc21 [Example 40] | 608 |
| O=C([O-])c1ccccc1-c1c2ccc(=[N+]3CC(F)C3)cc-2oc2cc(N3CC(F)C3)ccc12 (stereo not shown) [Example 10] | 536 |
| O=C([O-])c1ccccc1-c1c2ccc(=[N+]3CCC3)cc-2oc2cc(N3CCC3)ccc12 [Example 7] | 549 |
| O=C([O-])c1ccccc1-c1c2ccc(=[N+]3CC(C(=O)O)C3)cc-2oc2cc(N3CC(C(=O)O)C3)ccc12 (stereo not shown) [Example 16] | 545 |
